Cited source: patent US20210380703A1

Molecular target: T1, mouse ACVR2A (mouse, UniProt P27038 20-135, limits assumed); further: test concentration or dose not given here
T1 construct: coated antigen of the initial ELISA
T1 sequence (P27038 20-135 limits assumed): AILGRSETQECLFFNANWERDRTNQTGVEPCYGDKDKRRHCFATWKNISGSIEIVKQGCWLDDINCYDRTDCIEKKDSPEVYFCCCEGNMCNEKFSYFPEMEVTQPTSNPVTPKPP
Assay: ELISA
observed-property: optical density (OD)
Express your answer in OD, writing the number without its unit.

binder	observed-property	endpoint-unit	test-value
367_B01 (antibody, V domains shown, Group III) VH: EVQLLESGGGLVQPGGSLRLSCAASGFTFSSYSMNWVRQAPGKGLEWVAGINYNGGYKGYADSVKGRFTISRDNSKNTLYLQMNSLRAEDTAVYYCARGANWHDTALDYWGQGTLVTVSS VL: DIQMTQSPSSLSASVGDRVTITCRASQSISSYVNWYQQKPGKAPKLVIYAATSRASGVPSRFSGSGSGTDFTLTISSLQPEDFATYYCQQSYSTPLTFGGGTKVEIK	optical density	OD	2.91

Prompt: Find the recorded optical density belonging to 373_A01 (antibody, V domains shown, Group III) VH: EVQLLESGGGLVQPGGSLRLSCAASGFTFSSYGMNWVRQAPGKGLEWVSNINYNGGYTGYADSVKGRFTISRDNSKNTLYLQMNSLRAEDTAVYYCARGANWHDTHLDYWGQGTLVTVSS VL: DIQMTQSPSSLSASVGDRVTITCRASQSIVTYLNWYQQKPGKAPKLVIYATTSRASGVPSRFSGSGSGTDFTLTISSLQPEDFATYYCQQSYNLPLTFGGGTKVEIK and report it.
Completion: 3.48
